Recorded inhibition at 50 µM for the following compounds
tested on: DENV2 replicon; assay: microbe, parasite or virus in culture; assay type: cell-based, Dengue Virus 2 (DENV2); details: Dengue virus, DENV2, BHK-21, read-out: % Replicon Inhibition (Means ± SEM) DENV2
Counter-ions that a name gives are not always drawn.

These recorded examples may help you get a feel for the data.
- compound: "CC(CCCN(CCCl)CCCl)Nc1ccnc2cc(Cl)ccc12 (stereo not drawn)"
  tgt: "DENV2 replicon"
  inhibition at 50 µM: "> 99%"
- compound: "C=C[C@H]1C[N@@]2CC[C@H]1C[C@H]2[C@H](O)c1ccnc2ccc(OC)cc12 [quinine, hydrobromide hydrate]"
  tgt: "DENV2 replicon"
  inhibition at 50 µM: "2.8%"
- compound: "CC(CCc1ccc(N(CCCl)CCCl)cc1)Nc1ccnc2cc(Cl)ccc12 (stereo not drawn)"
  tgt: "DENV2 replicon"
  inhibition at 50 µM: "> 99%"
- compound: "CCN(CC)Cc1cc(Nc2ccnc3cc(Cl)ccc23)ccc1O"
  tgt: "DENV2 replicon"
  inhibition at 50 µM: "76.3%"
- compound: "CCN(CC)CCCC(C)Nc1ccnc2cc(Cl)ccc12 (stereo not drawn)"
  tgt: "DENV2 replicon"
  inhibition at 50 µM: "54.8%"

Below: the item to evaluate.
Query string: Can you share its inhibition at 50 µM? I mean this compound: COc1cc(NC(C)CCCN)c2ncccc2c1 (stereo not drawn)
Result string: < 0%

----------
tested on: BHK-21 cells; details: hamster
measured.attribute: CC50
Write down the value, and be sure its unit follows.

Query string: Can you share its CC50? I mean this compound: CC(CCCN(CCCl)CCCl)Nc1ccnc2cc(Cl)ccc12 (stereo not shown)
Result string: 30.5 µM

----------
system: DENV2 replicon; experiment: microbe, parasite or virus in culture; assay type: cell-based, Dengue Virus 2 (DENV2); conditions: Dengue virus, DENV2, BHK-21, read-out: EC50 in BHK-21/DENV2 replicon cells
measured.attribute: pEC50
For clarity, pEC50 is expressed as the negative log10 of concentration in mol/L.

Query string: Can you share its pEC50? I mean this compound: CCN(CC)Cc1cc(Nc2ccnc3cc(Cl)ccc23)ccc1O
Result string: 5.13

----------
Recorded CC50 for the following compounds
tested on: Vero cells; assay: Cytotoxicity assay, Vero cells; details: read-out: WNV replicon CC50; Table 2; unit inferred
Provide the reading as a plain figure in µM.

These recorded examples may help you get a feel for the data.
- compound: "C=CN(C)Cc1cc(Nc2ccnc3cc(Cl)ccc23)ccc1O"
  CC50, µM: 18.2
- compound: "CCN(CC)Cc1cc(Nc2ccnc3cc(Cl)ccc23)ccc1O"
  CC50, µM: 24.4

Below: the item to evaluate.
Query string: Can you share its CC50? I mean this compound: COc1ccc(Nc2ccnc3cc(Cl)ccc23)cc1CN(CCCl)C(C)CCl (stereo not shown)
Result string: 34.8

----------
test system: BHK-21 cells; test: Cytotoxicity assay, BHK-21 cells; conditions: read-out: DENV replicon CC50; Table 2; unit inferred
Recorded CC50 for the following compounds

These recorded examples may help you get a feel for the data.
- compound: "COc1ccc(Nc2ccnc3cc(Cl)ccc23)cc1CN(CCCl)C(C)CCl (stereo not shown) [AQ derivative 7]"
  tgt: "BHK-21 cells"
  CC50: "17.7 µM"
- compound: "Oc1ccc(Nc2ccnc3cc(Cl)ccc23)cc1 [AQ derivative 8]"
  tgt: "BHK-21 cells"
  CC50: "> 100 µM"
- compound: "C=CN(C)Cc1cc(Nc2ccnc3cc(Cl)ccc23)ccc1O [AQ derivative 6]"
  tgt: "BHK-21 cells"
  CC50: "16.4 µM"

Below: the item to evaluate.
Query string: Can you share its CC50? I mean this compound: CCN(CC)Cc1cc(Nc2ccnc3cc(Cl)ccc23)ccc1O [AQ]
Result string: 80 µM

----------
test: in vitro; conditions: hamster
measured.attribute: CC50 (µM)
Provide the reading as a plain figure in µM.

Query string: Can you share its CC50? I mean this molecule: CC(CCc1ccc(N(CCCl)CCCl)cc1)Nc1ccnc2cc(Cl)ccc12 (stereo not shown) [chloroquine ethyl phenyl mustard]
Result string: 74.1

----------
system: Vero cells; details: African green monkey
measured.attribute: CC50 (µM)
Provide the reading as a plain figure in µM.

Query string: Can you share its CC50? I mean this molecule: CC(CCCN(CCCl)CCCl)Nc1ccnc2cc(Cl)ccc12 (stereo not shown)
Result string: 3.64

Source listed as patent US20170165254A1.
